SYSTEM NAME: human cyclin-dependent kinase 2 (Cdk2) (Homo sapiens, UniProt P24941)
Construct: poly-histidine; made in house; host or cells: E. coli
PROTOCOL DESCRIPTION: Kinetic thiol consumption assay with wild type Cdk2 (C177)
Format: binding
Design: key: k(Cdk2) divided by k(model thiol)
SETUP CONDITIONS: Cdk2 WT, no additional mutations
In this section, each of the molecules is paired with its reported Rate enhancement, Cdk2 WT.

[
  {
    "MOLECULE": "C=CC(=O)N(C)C1CC(OCC)C12CCC2 (stereo not drawn) [CA-048]",
    "SYSTEM NAME": "human cyclin-dependent kinase 2 (Cdk2) (Homo sapiens, UniProt P24941)",
    "Rate enhancement, Cdk2 WT": 0.7118
  },
  {
    "MOLECULE": "C=CC(=O)NCc1ccc(-c2csnn2)cc1 [BN-66]",
    "SYSTEM NAME": "human cyclin-dependent kinase 2 (Cdk2) (Homo sapiens, UniProt P24941)",
    "Rate enhancement, Cdk2 WT": 0.9753
  },
  {
    "MOLECULE": "C=CC(=O)Nc1ccccc1-c1ccccc1 [EL-1012]",
    "SYSTEM NAME": "human cyclin-dependent kinase 2 (Cdk2) (Homo sapiens, UniProt P24941)",
    "Rate enhancement, Cdk2 WT": 0.6362
  },
  {
    "MOLECULE": "C=CC(=O)Nc1ccc(C(=O)OC)cc1 [CA-028]",
    "SYSTEM NAME": "human cyclin-dependent kinase 2 (Cdk2) (Homo sapiens, UniProt P24941)",
    "Rate enhancement, Cdk2 WT": 2.835
  },
  {
    "MOLECULE": "C=CC(=O)N1C(=O)CC(c2ccccc2)N(C(=O)C=C)c2ccccc21 (stereo not drawn) [CA-165-1]",
    "SYSTEM NAME": "human cyclin-dependent kinase 2 (Cdk2) (Homo sapiens, UniProt P24941)",
    "Rate enhancement, Cdk2 WT": 1.092
  },
  {
    "MOLECULE": "C=CC(=O)N1CCOC2(CCCCC2)C1 [CA-193]",
    "SYSTEM NAME": "human cyclin-dependent kinase 2 (Cdk2) (Homo sapiens, UniProt P24941)",
    "Rate enhancement, Cdk2 WT": 0.8776
  }
]

* * *

SYSTEM NAME: human cyclin-dependent kinase 2 (Cdk2) (Homo sapiens, UniProt P24941)
Construct: poly-histidine; made in house; host or cells: E. coli
PROTOCOL DESCRIPTION: Kinetic thiol consumption assay with wild type Cdk2 (C177)
Format: binding
SETUP CONDITIONS: Protein: Cdk2; cysteine position WT; in h^-1
// label = 1.0 if Rate constant with Cdk2 WT is not less than 0.005, otherwise 0.0

[
  {
    "COMPOUND": "C=CC(=O)N(Cc1ccco1)C12CC3CC(CC(C3)C1)C2",
    "CATEGORY LABEL": 1.0
  },
  {
    "COMPOUND": "C=CC(=O)Nc1cccc(C(F)(F)F)c1 [BN-80]",
    "CATEGORY LABEL": 1.0
  },
  {
    "COMPOUND": "C=CC(=O)N1CC2(CCC2)c2c(F)cccc21",
    "CATEGORY LABEL": 1.0
  },
  {
    "COMPOUND": "C=CC(=O)N1CCCCCC1C/C=C/c1ccccc1 (stereo not drawn)",
    "CATEGORY LABEL": 0.0
  },
  {
    "COMPOUND": "C=CC(=O)Nc1ccc2c(c1)OC1(CCCC1)O2",
    "CATEGORY LABEL": 0.0
  },
  {
    "COMPOUND": "C=CC(=O)N(Cc1ccco1)Cc1cc2cc(C)ccc2o1",
    "CATEGORY LABEL": 1.0
  },
  {
    "COMPOUND": "C=CC(=O)NCc1ccc(-c2ccccc2)cc1",
    "CATEGORY LABEL": 0.0
  },
  {
    "COMPOUND": "C=CC(=O)N1CCn2c(C(=O)NC3CC3)ccc2C1C (stereo not drawn)",
    "CATEGORY LABEL": 1.0
  },
  {
    "COMPOUND": "C=CC(=O)N1CCN(c2ccccc2C(N)=O)CC1",
    "CATEGORY LABEL": 0.0
  }
]
